# tested on: Perilipin-5 (Homo sapiens) + 1-acylglycerol-3-phosphate O-acyltransferase ABHD5 (Homo sapiens) (UniProt Q00G26+Q8WTS1)
# Sequence (Q00G26 whole entry, looked up): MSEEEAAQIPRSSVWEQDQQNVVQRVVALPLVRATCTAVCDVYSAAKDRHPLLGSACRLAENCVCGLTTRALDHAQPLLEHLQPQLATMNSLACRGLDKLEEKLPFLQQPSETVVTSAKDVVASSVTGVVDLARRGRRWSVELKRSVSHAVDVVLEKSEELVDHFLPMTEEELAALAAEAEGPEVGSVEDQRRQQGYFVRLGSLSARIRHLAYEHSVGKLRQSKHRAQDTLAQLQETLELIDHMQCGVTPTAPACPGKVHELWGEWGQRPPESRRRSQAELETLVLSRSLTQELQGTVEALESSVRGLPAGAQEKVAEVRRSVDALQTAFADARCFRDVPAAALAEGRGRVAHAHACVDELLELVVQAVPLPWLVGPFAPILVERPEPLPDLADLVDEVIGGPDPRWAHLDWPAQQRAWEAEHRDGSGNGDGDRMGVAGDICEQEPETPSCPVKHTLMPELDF
# Sequence (Q8WTS1 whole entry, looked up): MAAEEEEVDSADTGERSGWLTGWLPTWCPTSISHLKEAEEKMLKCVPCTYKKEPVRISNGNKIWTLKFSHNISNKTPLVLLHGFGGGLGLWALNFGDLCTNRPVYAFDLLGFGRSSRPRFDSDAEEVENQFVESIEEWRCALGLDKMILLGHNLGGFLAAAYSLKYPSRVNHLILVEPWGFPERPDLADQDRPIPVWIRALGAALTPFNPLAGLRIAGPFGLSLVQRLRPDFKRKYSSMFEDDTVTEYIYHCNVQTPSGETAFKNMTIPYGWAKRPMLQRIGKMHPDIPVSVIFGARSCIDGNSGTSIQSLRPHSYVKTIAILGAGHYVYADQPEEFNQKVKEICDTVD
# method: ABHD5-PLIN5 interaction inhibitors, primary screen, cell lysate, split luciferase complementation, luminescence (AID 602281);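 note: 0% = DMSO only wells and the 100% control is not disclosed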
# run parameters: Split G. princeps luciferase complementation, 4 h, at 4 µM, hits give high values
The campaign covered roughly 360,000 compounds. About 2,900 (0.81%) were called active. Many of the other results were omitted from the sample, so actives are more common in it than they were.
measure name: inhibition (%)
Express your answer in %, writing the number without its unit.

compound | unit | inhibition
O=C(NC1CCN(S(=O)(=O)c2ccc(F)cc2)CC1)c1ccccc1 | % | 4.55
N#Cc1ccc(C2N=C(c3ccccc3)NO2)cc1 (stereo unspecified) | % | 5.57
Cc1cc2nc(-c3ccc(F)cc3)c(Cc3ccsc3)n2c(C)c1Br | % | -2.1
CN(C)C(=O)COC(=O)c1cccc(S(=O)(=O)N2CC3(C)CC2CC(C)(C)C3)c1 (stereo unspecified) | % | -4.49
Cc1ccc(NC(=O)Cn2sc3ccccc3c2=O)cc1 | % | 71.6
O=[N+]([O-])/C=C/c1ccc2c(ccn2Cc2ccccc2)c1 | % | 92
O=C(Cn1nc(C(=O)O)c2ccccc2c1=O)Nc1ccc(F)cc1 | % | 4.56
Cc1cc(C)c(C)c(S(=O)(=O)Nc2ccc(O)cc2)c1C | % | 4.3
Cc1ccc(NC(=O)c2ccc(Cl)nc2)cc1S(=O)(=O)N1CCOCC1 | % | -3.8
Cc1cc2nc(-c3ccc(Cl)cc3)c(Cc3cccc(F)c3)n2c(C)c1Br | % | -5.68

Next up:
Find the measured inhibition of Cc1ccc(NC(=O)Cn2c(C)csc2=O)cc1 and report it.
0

* * *

# tested on: Perilipin-5 (Homo sapiens) + 1-acylglycerol-3-phosphate O-acyltransferase ABHD5 (Homo sapiens) (UniProt Q00G26+Q8WTS1)
# method: ABHD5-PLIN5 interaction inhibitors, primary screen, cell lysate, split luciferase complementation, luminescence (AID 602281);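 note: 0% = DMSO only wells and the 100% control is not disclosed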
# run parameters: Split G. princeps luciferase complementation, 4 h, at 4 µM, hits give high values
About 2,900 (0.81%) of roughly 360,000 compounds were called active. The sample holds actives, similar compounds and a random draw of the others, so the mix is not that of the screen.
Measured inhibition accompanies every entry in the list below.
Express your answer in %, writing the number without its unit.

molecule | unit | value reported
CCc1ccc(-c2cc(C)no2)cc1S(=O)(=O)NCCc1ccc(S(N)(=O)=O)cc1 | % | -2.59
O=C(/C=C(O)/C=C/c1ccc(O)cc1)/C=C/c1ccc(O)cc1 | % | 35.1

Find the measured inhibition of CN(C)CCNC(=O)C(C(=O)c1ccccc1)n1ccccc1=O (stereo not drawn) and report it.
-4.39

* * *

# tested on: Perilipin-5 (Homo sapiens) + 1-acylglycerol-3-phosphate O-acyltransferase ABHD5 (Homo sapiens) (UniProt Q00G26+Q8WTS1)
# method: ABHD5-PLIN5 interaction inhibitors, primary screen, cell lysate, split luciferase complementation, luminescence (AID 602281);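 note: 0% = DMSO only wells and the 100% control is not disclosed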
# run parameters: Split G. princeps luciferase complementation, 4 h, at 4 µM, hits give high values
Screen size: about 360,000 compounds; about 2,900 (0.81%) were called active. This is one part of a sample in which actives are shown more often than they occur.
Measured inhibition accompanies every entry in the list below.

compound | inhibition
O=C1CCCC(O)=C1N=Nc1ccc2ncsc2c1 | -5.19% (inactive)

Find the measured inhibition of C(=C\c1ccccc1)/CSc1nnc(-c2cccnc2)n1Cc1ccco1 and report it.
7.27% (inactive)

Find the measured inhibition of Cc1cccc(C)c1NC(=O)CN1C(=O)C(C)Oc2ccccc21 (configuration not stated) and report it.
-5.51% (inactive)

Find the measured inhibition of Cc1ccc(N(C(=O)c2ccc(CN3CCOCC3)o2)C(C(=O)NCCC(C)C)c2cccs2)c(C)c1 (configuration not stated) and report it.
5.44% (inactive)

* * *

# tested on: Perilipin-5 (Homo sapiens) + 1-acylglycerol-3-phosphate O-acyltransferase ABHD5 (Homo sapiens) (UniProt Q00G26+Q8WTS1)
# method: ABHD5-PLIN5 interaction inhibitors, primary screen, cell lysate, split luciferase complementation, luminescence (AID 602281);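 note: 0% = DMSO only wells and the 100% control is not disclosed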
# run parameters: Split G. princeps luciferase complementation, 4 h, at 4 µM, hits give high values
About 2,900 (0.81%) of roughly 360,000 compounds were called active. What follows is part of a selection rich in actives, with near analogues and random picks from the rest.
Measured inhibition accompanies every entry in the list below.
Express your answer in %, writing the number without its unit.

Worked set:
compound | inhibition / %
CC(=O)Nc1ccc(NC(=O)CC2CCCC2)cc1 | 1.52
CCOc1ccc(NC(=S)NC(=O)/C=C/c2ccc(OC)cc2)c([N+](=O)[O-])c1 | 2.26
COc1cc(/C=C/CNC[C@H]2O[C@@H](n3cnc(C(N)=O)n3)[C@H](O)[C@@H]2O)ccc1O | 9.45
C=CCN(c1ccc(C(N)=O)cc1)S(C)(=O)=O | 0.17
O=C(O)CC(SCC(=O)Nc1ccc(Br)cc1)C(=O)O (stereo unspecified) | 0.5

Find the measured inhibition of COc1ccc(CCNC(=O)CN(c2ccccc2)S(C)(=O)=O)cc1OC and report it.
6.8

Find the measured inhibition of O=C(NNS(=O)(=O)c1ccc(F)cc1)c1cnccn1 and report it.
-1.88

Find the measured inhibition of COc1ccc(CCNC(=O)c2ccc(CS(=O)(=O)c3ccc(Br)cc3)o2)cc1OC and report it.
5.5

Find the measured inhibition of Cc1c(CN2CCC(CO)(CCOc3ccccc3)CC2)[nH]c2ccc(Cl)cc12 and report it.
22.5

Find the measured inhibition of O=C(CCl)Nc1ccc(Sc2ccc(NC(=O)CCl)cc2)cc1 and report it.
28.2

Find the measured inhibition of Cc1cc2c(c(=O)n1C)C(C(C)C)C(C#N)=C(N)O2 (stereo unspecified) and report it.
1.5

Find the measured inhibition of COc1ccc2c(c1)c(=Cc1ccc(N(C)C)cc1)c1cc(-c3ccccc3)[n+](C)n12 and report it.
30.2

Find the measured inhibition of Cc1cc2c(c(=O)n1Cc1ccco1)C(c1ccccc1)C(C#N)=C(N)O2 (stereo unspecified) and report it.
36.4

Find the measured inhibition of Oc1ccc2ccccc2c1N=Nc1nccs1 and report it.
22.1

Find the measured inhibition of COC(=O)C1=C(C)NC2=C(C(=O)c3ccccc32)C1c1ccc(-c2ccc(C(=O)O)cc2)o1 (stereo unspecified) and report it.
17.7

Find the measured inhibition of COc1ccc(-c2cnc3c(c2)C(=O)N([C@H](C)CO)C[C@@H](C)[C@H](CN(C)Cc2ccccc2)O3)cc1 and report it.
4.36

Find the measured inhibition of COc1ccc(/C=C/C(=O)NC(=S)N2CCCC(C(N)=O)C2)cc1 (stereo unspecified) and report it.
-2.44

Find the measured inhibition of O=S(=O)(NCc1cccnc1)c1ccc(Cl)nc1 and report it.
5.93

Find the measured inhibition of CC(C)(O)C#Cc1ccc(CN2CCC(CO)(CCc3ccccc3)CC2)cc1 and report it.
-5.13

Find the measured inhibition of Cc1cc(C)cc(C(=O)NC(CC(N)=O)c2ccc(N3CCC(N4CCCCC4)CC3)c([N+](=O)[O-])c2)c1 (stereo unspecified) and report it.
-0.26

Find the measured inhibition of Cc1cccc(-c2ncc(CN3CCC(CO)(CCCc4ccccc4)CC3)cn2)c1 and report it.
12.2

* * *

# tested on: Perilipin-5 (Homo sapiens) + 1-acylglycerol-3-phosphate O-acyltransferase ABHD5 (Homo sapiens) (UniProt Q00G26+Q8WTS1)
# method: ABHD5-PLIN5 interaction inhibitors, primary screen, cell lysate, split luciferase complementation, luminescence (AID 602281);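 note: 0% = DMSO only wells and the 100% control is not disclosed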
# run parameters: Split G. princeps luciferase complementation, 4 h, at 4 µM
The whole screen tested about 360,000 compounds, of which about 2,900 (0.81%) were called active.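 Rule for the calls: active = inhibition above the mean inhibition across every tested compound plus 3 SD (cut at about 22% in these data); inactive = the rest.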 What follows is part of a selection rich in actives, with near analogues and random picks from the rest.
Response enum: active, inactive

compound | cat
Cc1cn(C2C=CC(CO)O2)c(=O)[nH]c1=O (stereo unspecified) | inactive
O=S(=O)(Nc1nccs1)c1ccc2c(c1)OCCO2 | inactive
COc1ccc(CCNC(=O)Nc2ccc3c(c2)c(=O)n(C)n3C)cc1OC | inactive
COCCNC(=O)Nc1ccc2nc(-c3ccco3)c(-c3ccco3)nc2c1 | active
Cc1[nH]c(=O)c(C(=O)/C=C/c2ccccc2)c2c1CCCC2 | active

// param item: Cc1cc(SCC(=O)NCCN2C(=O)CSC2=O)nc2ccccc12 ; yields the recorded call
inactive

// param item: CC1(C(=O)NS(=O)(=O)c2ccc(C#N)cc2)CCN1C(=O)c1ccc(C2CCCCC2)cc1 (stereo unspecified) ; yields the recorded call
inactive

// param item: COCCNC(=O)CN(Cc1ccco1)C(=O)CCC(=O)Nc1nccs1 ; yields the recorded call
inactive

// param item: CCOC(=O)CCC(=O)OCC(=O)NC(C)C1CC2CCC1C2 (stereo unspecified) ; yields the recorded call
inactive

// param item: Cc1c(C)c2c(OCC(=O)N[C@@H](C(=O)O)c3ccccc3)cc3c(c2oc1=O)CCC(C)(C)O3 ; yields the recorded call
inactive

// param item: CC1(OC(=O)C2CCCC2)C(=O)C=C2C=C(c3ccc(C#N)cc3)OC=C2C1=O (stereo unspecified) ; yields the recorded call
active
